method.summary: Liver microsomal stability, rat
Format: in vitro ADME
condition.info: 1 μM, 0.5 mg/mL microsomal protein, NADPH, 37 °C
attribute.measured: Liver microsomal stability (% remaining after 30 min) Rat
Respond with the bare value in % remaining after 30 min.

Please review the following examples before continuing.
For this compound ( C=CC(=O)Nc1cc(Nc2ncc(I)c(Nc3ccccc3S(=O)(=O)C(C)C)n2)c(OC)cc1N(C)CCN(C)C [Compound 7d] ), measured Liver microsomal stability (% remaining after 30 min) Rat is 14

For this compound ( C=CC(=O)Nc1cc(Nc2ncc(I)c(Nc3ccccc3P(C)(C)=O)n2)c(OC)cc1N(C)CCN(C)C [Compound 7h] ), measured Liver microsomal stability (% remaining after 30 min) Rat is 81

Next:
For this compound ( C=CC(=O)Nc1cc(Nc2ncc(F)c(Nc3ccccc3P(C)(C)=O)n2)c(OC)cc1N(C)CCN(C)C [Compound 7f] ), measured Liver microsomal stability (% remaining after 30 min) Rat is 87

* * *

method.summary: Liver microsomal stability, rat
Assay type: in vitro ADME
condition.info: 1 μM, 0.5 mg/mL microsomal protein, NADPH, 37 °C
Entries and their measured Liver microsomal stability (% remaining after 30 min) Rat follow.
Respond with the bare value in % remaining after 30 min.

Please review the following examples before continuing.
For this compound ( "C=CC(=O)Nc1cc(Nc2ncc(Cl)c(Nc3ccccc3P(C)(C)=O)n2)c(OC)cc1N(C)CCN(C)C" ), measured Liver microsomal stability (% remaining after 30 min) Rat is 76

For this compound ( "C=CC(=O)Nc1cc(Nc2nccc(Nc3ccccc3S(=O)(=O)C(C)C)n2)c(OC)cc1N(C)CCN(C)C" ), measured Liver microsomal stability (% remaining after 30 min) Rat is 22

For this compound ( "C=CC(=O)Nc1cc(Nc2nccc(Nc3ccccc3P(C)(C)=O)n2)c(OC)cc1N(C)CCN(C)C" ), measured Liver microsomal stability (% remaining after 30 min) Rat is 78

For this compound ( "C=CC(=O)Nc1cc(Nc2ncc(Cl)c(Nc3ccccc3S(=O)(=O)C(C)C)n2)c(OC)cc1N(C)CCN(C)C" ), measured Liver microsomal stability (% remaining after 30 min) Rat is 11

For this compound ( "C=CC(=O)Nc1cc(Nc2ncc(I)c(Nc3ccccc3S(=O)(=O)N(C)C)n2)c(OC)cc1N(C)CCN(C)C" ), measured Liver microsomal stability (% remaining after 30 min) Rat is 12

For this compound ( "C=CC(=O)Nc1cc(Nc2ncc(F)c(Nc3ccccc3S(=O)(=O)C(C)C)n2)c(OC)cc1N(C)CCN(C)C" ), measured Liver microsomal stability (% remaining after 30 min) Rat is 11

Next:
For this compound ( "C=CC(=O)Nc1cc(Nc2ncc(F)c(Nc3ccccc3S(=O)(=O)N(C)C)n2)c(OC)cc1N(C)CCN(C)C" ), measured Liver microsomal stability (% remaining after 30 min) Rat is 7

* * *

method.summary: Liver microsomal stability, mouse
Type: in vitro ADME
condition.info: 1 μM, 0.5 mg/mL microsomal protein, NADPH, 37 °C
Decide using Liver microsomal stability (% remaining after 30 min) Mouse alone. Strictly below 10 % remaining after 30 min: t. Equal to or above 10 % remaining after 30 min: f.

Solved entries:
Enquiry: Please indicate whether the reported Liver microsomal stability (% remaining after 30 min) Mouse of C=CC(=O)Nc1cc(Nc2nccc(Nc3ccccc3S(=O)(=O)N(C)C)n2)c(OC)cc1N(C)CCN(C)C [Compound 7i] is strictly below 10 % remaining after 30 min.
Return: t

Enquiry: Please indicate whether the reported Liver microsomal stability (% remaining after 30 min) Mouse of C=CC(=O)Nc1cc(Nc2nccc(Nc3ccccc3P(C)(C)=O)n2)c(OC)cc1N(C)CCN(C)C [Compound 7e] is strictly below 10 % remaining after 30 min.
Return: f

Enquiry: Please indicate whether the reported Liver microsomal stability (% remaining after 30 min) Mouse of C=CC(=O)Nc1cc(Nc2nccc(Nc3ccccc3S(=O)(=O)C(C)C)n2)c(OC)cc1N(C)CCN(C)C [Compound 7a] is strictly below 10 % remaining after 30 min.
Return: t

Enquiry: Please indicate whether the reported Liver microsomal stability (% remaining after 30 min) Mouse of C=CC(=O)Nc1cc(Nc2ncc(Cl)c(Nc3ccccc3S(=O)(=O)C(C)C)n2)c(OC)cc1N(C)CCN(C)C [Compound 7c] is strictly below 10 % remaining after 30 min.
Return: f

Enquiry: Please indicate whether the reported Liver microsomal stability (% remaining after 30 min) Mouse of C=CC(=O)Nc1cc(Nc2ncc(F)c(Nc3ccccc3S(=O)(=O)C(C)C)n2)c(OC)cc1N(C)CCN(C)C [Compound 7b] is strictly below 10 % remaining after 30 min.
Return: f

Next:
Enquiry: Please indicate whether the reported Liver microsomal stability (% remaining after 30 min) Mouse of C=CC(=O)Nc1cc(Nc2ncc(I)c(Nc3ccccc3S(=O)(=O)N(C)C)n2)c(OC)cc1N(C)CCN(C)C [Compound 7l] is strictly below 10 % remaining after 30 min.
Return: f

Enquiry: Please indicate whether the reported Liver microsomal stability (% remaining after 30 min) Mouse of C=CC(=O)Nc1cc(Nc2ncc(F)c(Nc3ccccc3P(C)(C)=O)n2)c(OC)cc1N(C)CCN(C)C [Compound 7f] is strictly below 10 % remaining after 30 min.
Return: f

Enquiry: Please indicate whether the reported Liver microsomal stability (% remaining after 30 min) Mouse of C=CC(=O)Nc1cc(Nc2ncc(Cl)c(Nc3ccccc3P(C)(C)=O)n2)c(OC)cc1N(C)CCN(C)C [Compound 7g] is strictly below 10 % remaining after 30 min.
Return: f

* * *

Entries and their measured Cytochrome P450 inhibition (% of control) 3A4 follow.
Test system: CYP 3A4
method.summary: Cytochrome P450 inhibition assay, CYP3A4
Assay type: in vitro ADME
condition.info: CYP activity as % of control, 10 μM, human liver microsomes

For this molecule ( "C=CC(=O)Nc1cc(Nc2ncc(Cl)c(Nc3ccccc3P(C)(C)=O)n2)c(OC)cc1N(C)CCN(C)C" ), measured Cytochrome P450 inhibition (% of control) 3A4 is 91 % of control

For this molecule ( "C=CC(=O)Nc1cc(Nc2ncc(F)c(Nc3ccccc3S(=O)(=O)C(C)C)n2)c(OC)cc1N(C)CCN(C)C" ), measured Cytochrome P450 inhibition (% of control) 3A4 is 51 % of control

For this molecule ( "C=CC(=O)Nc1cc(Nc2ncc(I)c(Nc3ccccc3S(=O)(=O)C(C)C)n2)c(OC)cc1N(C)CCN(C)C" ), measured Cytochrome P450 inhibition (% of control) 3A4 is 47 % of control

For this molecule ( "C=CC(=O)Nc1cc(Nc2nccc(Nc3ccccc3S(=O)(=O)C(C)C)n2)c(OC)cc1N(C)CCN(C)C" ), measured Cytochrome P450 inhibition (% of control) 3A4 is 40 % of control

For this molecule ( "C=CC(=O)Nc1cc(Nc2nccc(Nc3ccccc3P(C)(C)=O)n2)c(OC)cc1N(C)CCN(C)C" ), measured Cytochrome P450 inhibition (% of control) 3A4 is 89 % of control

For this molecule ( "C=CC(=O)Nc1cc(Nc2ncc(Cl)c(Nc3ccccc3S(=O)(=O)C(C)C)n2)c(OC)cc1N(C)CCN(C)C" ), measured Cytochrome P450 inhibition (% of control) 3A4 is 44 % of control

For this molecule ( "C=CC(=O)Nc1cc(Nc2ncc(I)c(Nc3ccccc3P(C)(C)=O)n2)c(OC)cc1N(C)CCN(C)C" ), measured Cytochrome P450 inhibition (% of control) 3A4 is 88 % of control

Please find the next molecule below.
For this molecule ( "C=CC(=O)Nc1cc(Nc2ncc(F)c(Nc3ccccc3P(C)(C)=O)n2)c(OC)cc1N(C)CCN(C)C" ), measured Cytochrome P450 inhibition (% of control) 3A4 is >100 % of control

* * *

system: UniProt:P05177
Sequence (P05177 whole entry): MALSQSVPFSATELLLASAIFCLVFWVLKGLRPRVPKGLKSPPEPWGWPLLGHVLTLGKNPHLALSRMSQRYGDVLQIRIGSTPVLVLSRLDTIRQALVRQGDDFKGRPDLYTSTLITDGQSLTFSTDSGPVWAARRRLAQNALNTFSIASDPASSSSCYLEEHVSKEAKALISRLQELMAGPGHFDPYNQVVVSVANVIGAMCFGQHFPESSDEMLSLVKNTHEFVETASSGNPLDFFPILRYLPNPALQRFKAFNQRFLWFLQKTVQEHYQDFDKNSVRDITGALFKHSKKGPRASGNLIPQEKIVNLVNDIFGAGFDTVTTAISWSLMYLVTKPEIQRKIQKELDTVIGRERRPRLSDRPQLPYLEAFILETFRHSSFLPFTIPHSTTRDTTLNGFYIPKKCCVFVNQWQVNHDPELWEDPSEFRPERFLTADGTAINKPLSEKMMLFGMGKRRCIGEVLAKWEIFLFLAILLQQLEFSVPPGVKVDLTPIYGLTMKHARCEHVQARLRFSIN
method.summary: Cytochrome P450 inhibition assay, CYP1A2
Format: in vitro ADME
condition.info: CYP activity as % of control, 10 μM, human liver microsomes
Entries and their measured Cytochrome P450 inhibition (% of control) 1A2 follow.

Please review the following examples before continuing.
For this compound ( "C=CC(=O)Nc1cc(Nc2ncc(I)c(Nc3ccccc3P(C)(C)=O)n2)c(OC)cc1N(C)CCN(C)C" ), measured Cytochrome P450 inhibition (% of control) 1A2 is 91 % of control

For this compound ( "C=CC(=O)Nc1cc(Nc2ncc(F)c(Nc3ccccc3S(=O)(=O)N(C)C)n2)c(OC)cc1N(C)CCN(C)C" ), measured Cytochrome P450 inhibition (% of control) 1A2 is >100 % of control

For this compound ( "C=CC(=O)Nc1cc(Nc2ncc(I)c(Nc3ccccc3S(=O)(=O)C(C)C)n2)c(OC)cc1N(C)CCN(C)C" ), measured Cytochrome P450 inhibition (% of control) 1A2 is 81 % of control

Please find the next compound below.
For this compound ( "C=CC(=O)Nc1cc(Nc2nccc(Nc3ccccc3S(=O)(=O)N(C)C)n2)c(OC)cc1N(C)CCN(C)C" ), measured Cytochrome P450 inhibition (% of control) 1A2 is 82 % of control
